# measuredOn: Mushroom tyrosinase (Agaricus bisporus, UniProt O42713+Q00024+C7FF04+C7FF05)
# protocolDescription: Inhibition of mushroom tyrosinase
# Assay type: protein assay
Hi there, I'd appreciate the recorded IC50 for every entry that follows.
Enter the number, and then the unit.

Respond only with IC50 recorded for CCn1c(CCCc2c[nH]c3ccccc23)nnc1SCC(=O)Nc1ccccc1C
0.036 µM

Respond only with IC50 recorded for CCn1c(CCCc2c[nH]c3ccccc23)nnc1SCC(=O)Nc1cccc(C)c1C
0.142 µM

Respond only with IC50 recorded for COc1ccc2c(c1)CC/C(=C\c1ccc(OCc3cn(Cc4cccc(Cl)c4)nn3)c(OC)c1)C2=O
4.64 µM

Respond only with IC50 recorded for O=C1N=C(Nc2ccccc2)S/C1=C\c1ccccc1OCc1cn(Cc2ccccc2)nn1
8.92 µM

Respond only with IC50 recorded for Cc1ccc(Cn2cc(COc3ccc(-c4nc5ccccc5[nH]4)cc3)nn2)cc1
10.34 µM

Respond only with IC50 recorded for COc1cc(/C=N/Nc2nnc(S)n2N)ccc1O
14.6 µM

Respond only with IC50 recorded for COc1cc(C=O)ccc1O
4103 µM

Respond only with IC50 recorded for COc1ccccc1-n1c(SCC(=O)Nc2ccc(Br)cc2)nnc1-c1ccccc1F
0.0048 µM

Respond only with IC50 recorded for CCn1c(CCCc2c[nH]c3ccccc23)nnc1SCC(=O)Nc1ccc(C)cc1C
0.034 µM

Respond only with IC50 recorded for Nn1c(S)nnc1N/N=C/c1cccc(C(F)(F)F)c1
9 µM

Respond only with IC50 recorded for COc1ccc(/C=N/Nc2nnc(S)n2N)cc1O
3.4 µM

Respond only with IC50 recorded for NC(=S)N/N=C/c1ccc(OCc2cn(CC(=O)NCc3ccccc3)nn2)cc1
0.11 µM

Respond only with IC50 recorded for Cc1ccc(Cn2cc(COc3ccc(-c4nc5ccccc5[nH]4)cc3)nn2)cc1C
9.42 µM

Respond only with IC50 recorded for O=C1N=C(Nc2ccccc2)S/C1=C\c1ccccc1OCc1cn(Cc2cccc(Br)c2)nn1
9.81 µM

Respond only with IC50 recorded for C=CCc1ccc(O)c(OC)c1
923 µM

Respond only with IC50 recorded for Nn1c(S)nnc1N/N=C/c1cccc(Cl)c1
15 µM

###

# measuredOn: Mushroom tyrosinase (Agaricus bisporus, UniProt O42713+Q00024+C7FF04+C7FF05)
# protocolDescription: Inhibition of mushroom tyrosinase using L-DOPA as substrate pre-treated for 10 mins followed by substrate addition measured for 20 mins by spectrophotometric analysis
# Format: protein assay
propertyLabel: IC50 (nM)
I only need the number, in nM, no unit after it.

Respond only with IC50 recorded for CCn1c(Cc2csc(N)n2)nnc1SCc1cccc(Br)c1
2

Respond only with IC50 recorded for CCn1c(Cc2csc(N)n2)nnc1SCc1ccccc1Cl
6

Respond only with IC50 recorded for CCn1c(Cc2csc(N)n2)nnc1SCc1ccc(Cl)cc1Cl
1

Respond only with IC50 recorded for CCn1c(Cc2csc(N)n2)nnc1SCc1ccc(Cl)cc1
6

Respond only with IC50 recorded for Cc1ccccc1CNC(=O)CSc1nnc(Cc2csc(N)n2)n1-c1ccccc1
16832

###

# measuredOn: Tyrosinase (Homo sapiens)
# Sequence (P14679 whole entry, the tested form may be a part): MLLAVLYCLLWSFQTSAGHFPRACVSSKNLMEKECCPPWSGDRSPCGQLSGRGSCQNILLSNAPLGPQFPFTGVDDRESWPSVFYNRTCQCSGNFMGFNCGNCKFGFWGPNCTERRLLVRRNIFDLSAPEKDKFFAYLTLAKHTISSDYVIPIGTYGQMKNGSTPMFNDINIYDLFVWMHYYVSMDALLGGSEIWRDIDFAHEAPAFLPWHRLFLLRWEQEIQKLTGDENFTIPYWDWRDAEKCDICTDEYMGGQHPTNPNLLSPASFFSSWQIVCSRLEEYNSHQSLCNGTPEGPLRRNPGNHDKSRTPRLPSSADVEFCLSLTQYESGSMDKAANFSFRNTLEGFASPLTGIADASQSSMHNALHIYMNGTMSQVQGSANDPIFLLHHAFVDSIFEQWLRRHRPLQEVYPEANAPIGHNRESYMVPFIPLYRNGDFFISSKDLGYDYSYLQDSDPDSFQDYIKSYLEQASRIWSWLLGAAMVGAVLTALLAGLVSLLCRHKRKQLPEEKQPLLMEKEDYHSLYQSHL
# protocolDescription: Inhibition of C-terminal His-tagged truncated form of human tyrosinase using L-DOPA as substrate by spectrophotometric assay
Hi there, I'd appreciate the recorded IC50 for every entry that follows.
I only need the number, in µM, no unit after it.

Respond only with IC50 recorded for O=C1c2ccccc2C(=O)N1Cc1cn(Cc2cccc(Cl)c2)nn1
48.3

Respond only with IC50 recorded for O=C1c2ccccc2C(=O)N1Cc1cn(Cc2ccccc2[N+](=O)[O-])nn1
26.2

Respond only with IC50 recorded for O=C1NC(=S)NC(=O)C1=Cc1ccccc1OCc1cn(Cc2ccc(Br)cc2)nn1
44.2

Respond only with IC50 recorded for O=C1c2ccccc2C(=O)N1Cc1cn(Cc2ccc(Br)cc2)nn1
40.3

Respond only with IC50 recorded for O=C1c2ccccc2C(=O)N1Cc1cn(Cc2ccccc2Br)nn1
26.5

Respond only with IC50 recorded for O=C1c2ccccc2C(=O)N1Cc1cn(Cc2ccccc2Cl)nn1
47.2
